Consider the following sequences; for each one, report its apparent KD of MS2 coat protein.
System: MS2 coat protein
Test: apparent KD of MS2 coat protein; designed switch direction (-1 OFF switch, 1 ON switch): -1; higher = weaker reporter binding
Settings: input ligand: none
Please state the figure in nM; there is no need to write the unit.

# input What does the record list as apparent KD of MS2 coat protein for UUAAUACAUGUAGGAUAUGCGUGGCGAAGCUAUGCAGAAGGACAUGAGGAUCACCCAUGUUCUAGCGUCCGCGUACGGAUGCAA [JL Eng1 1.21 mod 9] (Eterna round: R96, puzzle: Exclusion NG 1) ?
# output 14.8

# input What does the record list as apparent KD of MS2 coat protein for ACAUGAGGAUCACCCAUGUGACAAUAAUGGCUGAUACAGAGACAGGAUAUUCGUGAAUAUCUAACGAAGAAGGGUCAUGACUGG [Deportation 69 - Jieux - Exclusion NG 3] (Eterna round: R96, puzzle: Exclusion NG 3) ?
# output 51.8

# input What does the record list as apparent KD of MS2 coat protein for GUUCUGUCAGGAUAUCAAUCCGCCUGUGAUACGCAGGCGGCUGAGAAGGGACAUGAGGAUCACCCAUGUAAAGA [jl-ex4-4.23 ViennaUCT mod] (Eterna round: R97, puzzle: Exclusion 4) ?
# output 41.2

# input What does the record list as apparent KD of MS2 coat protein for ACCAAAGCAGUAGGAUAUACGCACAUGAGGAUCACCCAUGUAGCACGUCUCCAGACACCGAAUGCGUAGAAGGACUGCGCGCAA [Eternabot solution 3] (Eterna round: R96, puzzle: Exclusion NG 2) ?
# output 17

# input What does the record list as apparent KD of MS2 coat protein for UCCUCACAUGAGGAUCACCCAUGUCAGGAUAUAAGAAACGCGGCAGGCAGCCGCAAAAUUAGAAGGGACAUUAA [EX1 A.27] (Eterna round: R97, puzzle: Exclusion 1) ?
# output 18.2

# input What does the record list as apparent KD of MS2 coat protein for UUUGCAAGCUAAAGAUCCCACAUGAGGAUCACCCAUGUUGCUGCCGUGAGGUAGCUUUUAACUUUUGCUCGUCUUAU [JL TOV1 3.44] (Eterna round: R97, puzzle: Sensor, turn-off variant 1) ?
# output 217

# input What does the record list as apparent KD of MS2 coat protein for CCGGCUUAGGAGGAUAUAGGAGUCGAAAGACACCUAGAAGGCCUAACAUGAGGAUCACCCAUGUGUCCUACCGG [Mod of Eli 6 - Jieux - Exclusion 6] (Eterna round: R97, puzzle: Exclusion 6) ?
# output 24

# input What does the record list as apparent KD of MS2 coat protein for GGAGGACGAGCAGGAUAUUUUCACAUGAGGAUCACCCAUGUGUACUCAGGGUAAUCCUCCGCCGAAAAGAAGGGUUCGGAAGAA [JL ViennaUCT Socedi mod 1] (Eterna round: R96, puzzle: Exclusion NG 2) ?
# output 50.8

# input What does the record list as apparent KD of MS2 coat protein for GGAUUUACUGAGGAUAUUGCAUCACCCGACUGAUAAGAAGGCAGAACAUGAGGAUCACCCAUGUGGGUAGUCAA [Bingo-Bango-3] (Eterna round: R97, puzzle: Exclusion 6) ?
# output 19.5

====

Test system: MS2 coat protein
Assay: apparent KD of MS2 coat protein; higher = weaker reporter binding
Conditions: Eterna round: R107; input ligand: theophylline 20 uM
recorded.metric: apparent KD of MS2 coat protein

# input What does the record list as apparent KD of MS2 coat protein for UAAAACAUGAGGAUCACCCAUGUAAUUGAUACCAGAGUGAUGAUCCUCCCUUGGCAGCAAAUAACGCAUUGGAAACAAUGCGAAA [Mat - Same State Theophlline A - Mod of Eli - D26] ?
# output 91.6 nM

# input What does the record list as apparent KD of MS2 coat protein for GGAGCUACGUCGGCCGCCACUAGCGGGUAUUGCGUGUACAUGAGGAUCACCCAUGUAAUAUGGCCUAGGACCGGGACGUAGCUCC [Bison] ?
# output 22.4 nM

# input What does the record list as apparent KD of MS2 coat protein for GAGGACAUGAGGAUCACCCAUGUAAAUGAUACCAGUUGAGAGAGAGGCCCUUGGCAGCGUAAACAUGACAGCGAGCGAGAGUGCG [ss-theoA-0] ?
# output 19.2 nM

# input What does the record list as apparent KD of MS2 coat protein for AUACCGAGUGAGUCGUGUUUCUUUUCAGAUACCAGACUUUUCGUUGUCCCUUGGCAGCUGUUUUACAUGAGGAUCACCCAUGUUG [#28 Exclusion-TheophyllineA] ?
# output 18.1 nM

# input What does the record list as apparent KD of MS2 coat protein for CUCUGAGUCCGAAAGGACUCAGAGGCGGAUACCAGCGAGGUCCAUCGCCCUUGGCAGCCGAACAUGAGGAUCACCCAUGUCGGUA [#1 Same State - Theophylline A Attempt #28 (HarryS)] ?
# output 12.1 nM

====

Tested on: MS2 coat protein
Experiment: apparent KD of MS2 coat protein; higher = weaker reporter binding
Settings: Eterna round: R107; input ligand: theophylline 2 mM
Consider the following sequences; for each one, report its apparent KD of MS2 coat protein.
Please state the figure in nM; there is no need to write the unit.

# input What does the record list as apparent KD of MS2 coat protein for ACAUGAGGAUCACCCAUGUCAGGGCACGAUACCAGCUGAUCCGGUGGCCCUUGGCAGCGUGACGUGUGGUCAUGAGGAUCACCCG [wsmullin] ?
# output 638

# input What does the record list as apparent KD of MS2 coat protein for CUCCUGGGAGCGGCCGCCACUGGAGGCCUUGCGCGACAUGAGGAUCACCCAUGUUGUCCCGGCCUCAGGACCGGGUUCGCGCGAG [Same State - Tryptophan B Attempt #1] ?
# output 9.71

# input What does the record list as apparent KD of MS2 coat protein for UUGUUGUUUGGAAGGAGCGUGUAAGAUUAAGAACAUGAGGAUCACCCAUGUUUUAAGGGAACACAGGUAGGUCGCCGGGUGGUGG [11.R] ?
# output 14.8

# input What does the record list as apparent KD of MS2 coat protein for UCGCUCUGGGUGGGAUCCGGAGAUGUGGAAGGAGCGCUGGUUACAGCAGGUAGGUCGCCAACGGACAUGAGGAUCACCCAUGUAC [Same State - Arginine A (Freestyle 16)] ?
# output 39.5

# input What does the record list as apparent KD of MS2 coat protein for UGUAUGUGAUUUGAUACCAGACCAGCUGGUGGUGCAUGAGGAACACCCAUGCAGGUUUGGGUCCCUUGGCAGCAAAUCGCAUACU [SS Theo B #24 Ms19] ?
# output 33

# input What does the record list as apparent KD of MS2 coat protein for UAAUGUGAGAGAAGGAGCGGAAGUCUCGUUACAACAUGAGGAUCACCCAUGUAACGUACAGUCCAGGUAGGUCGCUCUCGGGCGC [pqacmullin] ?
# output 18.1

# input What does the record list as apparent KD of MS2 coat protein for ACAUGAGGAUCACCCAUGUAUCAACGGGAAGGAGCGCCAAACAAGGCAGGUAGGUCGCCCACAUGAGGAUCACCCAUGUGUUGGU [Exclusion Arginine A GF 29] ?
# output 24.9

# input What does the record list as apparent KD of MS2 coat protein for UGUAUUACGAAAGUAGUACAUCGUGUUCGACGAGGACCGGUACGGCCGCCACUCGGACAUGAGGAUCACCCAUGUAGCGAAAGCU [Tryptophan A 25] ?
# output 491

# input What does the record list as apparent KD of MS2 coat protein for CAAGAGUUGUACAUUGUGAGGCGUCGGGAACGAGGACCGGUACGGCCGCCACUCGAAAAUUAACAUGAGGAUCACCCAUGUACAC [theeternabot_exclusion_MS2_Trp_A_35] ?
# output 82.8

# input What does the record list as apparent KD of MS2 coat protein for `GGAUAGGACACGGCCGCCACUGCGGCUAGAUACUAGCACAUUUCCUCACAUGAGGAUCACCCAUGUAGGACCGGGUGUCCUAUCG` ?
# output 89

# input What does the record list as apparent KD of MS2 coat protein for GGAACAUGAGGAUCACCCAUGUAAUCACGACGAGGACCGGUACGGCCGCCACUCGUAUUCACGCAAGGUAGAGGAAUACGUAGGC [theeternabot_exclusion_MS2_Trp_A_2] ?
# output 14.3

# input What does the record list as apparent KD of MS2 coat protein for ACAUGAGGAUCACCCAUGUAAUAAUCAGAAGGAGCGUGGAAUAACACAGGUAGGUCGCUGAUGUUUGGUUAAAUGUAAUCGUGUA [JR_SSArginiA_Sub001] ?
# output 17.6

====

Test system: MS2 coat protein
Test: apparent KD of MS2 coat protein; designed switch direction (-1 OFF switch, 1 ON switch): -1; higher = weaker reporter binding
Conditions: input ligand: none
Quick rule: apparent KD of MS2 coat protein of at least 30 nM means fulfilled, below that means not fulfilled.

# input Check if apparent KD of MS2 coat protein >= 30 nM (inclusive). Item: AAGCCACAUGAGGAUCACCCAUGUUAGGAUAUACGCAUGCAGACACGCACGGAUGCAAGUAGAAGGAACCAUGC [Design #5] (Eterna round: R97, puzzle: Exclusion 1)
# output not fulfilled

# input Check if apparent KD of MS2 coat protein >= 30 nM (inclusive). Item: GAGCAGCGAGGAUAUACAGACGGGUCCAGUACGUGUCUUGGACUUGAGGAUCACCCAAGUAGAAGGCGCCACAG [salish99_ex2_r4_605] (Eterna round: R97, puzzle: Exclusion 2)
# output not fulfilled

# input Check if apparent KD of MS2 coat protein >= 30 nM (inclusive). Item: CCCGUCGAUGUAGGAUAUGCCCGGGUCUCCCGGGCAGAAGGACAUGAGGAUCACCCAUGUUCAUGAGGAUCACCCAUGAAUGGG [Double but mutated MS2] (Eterna round: R96, puzzle: Exclusion NG 1)
# output not fulfilled

# input Check if apparent KD of MS2 coat protein >= 30 nM (inclusive). Item: GGACCUGGAGGAUAUAGAGCACUGAACAUGAGGAUCACCCAUGUGACCGGUGUAGUGCACCUAGAAGGCCGCGGCA [Eternabot (L1) Solution 40] (Eterna round: R97, puzzle: Exclusion 5)
# output fulfilled

# input Check if apparent KD of MS2 coat protein >= 30 nM (inclusive). Item: UAUCGGGACUGAGGAUAUUCGUUCGAGCACGAAGAAGAAGGUAGUGUCAGGGACAUGAGGAUCACCCAUGUGAUUUCAGUCCCA [JL ViennaUCT Erinle mod 6] (Eterna round: R96, puzzle: Exclusion NG 1)
# output fulfilled

# input Check if apparent KD of MS2 coat protein >= 30 nM (inclusive). Item: UUUAGUUCAGGAUAUGUAGACAUUAACAUGAGGAUCACCCAUGUAGAUCCUGAAUUGGCUACAGAAGGGAGCAUUU [Mod of Brourd 10 - Jieux - Exclusion 5] (Eterna round: R97, puzzle: Exclusion 5)
# output not fulfilled

# input Check if apparent KD of MS2 coat protein >= 30 nM (inclusive). Item: ACGUGCACUCAGGAUAUGCUACGCCUGCUCUCAGCAGAAGGGAGUACAUGAGGAUCACCCAUGUGACAUCUGAU [Eternabot (Original) Solution 13] (Eterna round: R97, puzzle: Exclusion 6)
# output not fulfilled

# input Check if apparent KD of MS2 coat protein >= 30 nM (inclusive). Item: UACAUGAGGAUCACCCAUGUUUUGUCGUGUAUGGUAUUUAUCUAGGAUAUCAAUUUAGUAAUUUAUGAGAAGGAGAAUAUUAAU [JMF's solution 73] (Eterna round: R96, puzzle: Exclusion NG 3)
# output fulfilled
